Molecular target: Tyrosine-protein phosphatase non-receptor type 11 (Homo sapiens, UniProt Q06124)
Sequence (Q06124 whole entry): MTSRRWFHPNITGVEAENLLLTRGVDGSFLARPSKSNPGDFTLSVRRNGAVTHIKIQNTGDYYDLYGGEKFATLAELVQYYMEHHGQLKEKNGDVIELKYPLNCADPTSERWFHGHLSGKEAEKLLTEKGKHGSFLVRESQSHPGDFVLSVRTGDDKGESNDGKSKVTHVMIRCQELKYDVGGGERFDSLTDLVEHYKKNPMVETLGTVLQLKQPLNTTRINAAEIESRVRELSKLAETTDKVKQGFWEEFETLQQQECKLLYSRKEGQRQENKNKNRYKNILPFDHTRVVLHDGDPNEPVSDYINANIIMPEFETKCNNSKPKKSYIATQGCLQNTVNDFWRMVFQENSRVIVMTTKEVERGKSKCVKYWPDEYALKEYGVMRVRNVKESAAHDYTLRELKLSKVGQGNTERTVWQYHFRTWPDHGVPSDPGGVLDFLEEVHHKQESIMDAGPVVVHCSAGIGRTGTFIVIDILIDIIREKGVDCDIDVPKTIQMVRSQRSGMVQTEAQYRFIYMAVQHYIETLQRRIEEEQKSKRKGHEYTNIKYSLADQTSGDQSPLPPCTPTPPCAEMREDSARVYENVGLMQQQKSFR
Assay: PTPN11 enzyme inhibitors – biochemical, selectivity assay for STEP inhibitor project, dose response (AID 602367)
pIC50: −log10 of the molar value.

# MOLECULE, QUALIFIER SYMBOL, pIC50
records = [
    ("O=C1C(=O)N(CCCO)C(c2ccc(Br)cc2)C1C(=O)c1ccc(Br)cc1 (stereo not given)", "=", 4.23),
    ("COc1ccc(CN=Nc2nc(O)c(CC(=O)O)s2)cc1OCc1ccc(Cl)cc1Cl", "=", 5.35),
    ("CCOc1cc(CN=Nc2nc(O)c(CC(=O)O)s2)ccc1OCc1ccc(Cl)cc1Cl", "=", 5.66),
    ("C=c1c(O)c(O)c(=C2C(=O)C(=O)C(C)C(=O)C2=O)c(O)c1O (stereo not given)", ">", 6.80),
    ("S=C1N=C(C23CC4CC(CC(C4)C2)C3)CC(c2ccc3c(c2)OCO3)N1 (stereo not given)", "=", 4.82),
    ("S=C1N=C2C(=C3SCCS3)CCCC2C(c2ccccc2)N1 (stereo not given) [MLS000516376]", "=", 5.28),
    ("O=C(N/N=C/C1C=CC=CC1=O)c1cccc([N+](=O)[O-])c1 (stereo not given) [MLS002667988]", "=", 5.62),
    ("COc1ccc(OC)c(-n2c(O)c3o[nH]c(-c4ccccc4Cl)c-3c2=O)c1 [SMR000046218]", "=", 6.33),
    ("CSc1ccc(CN=Nc2ccc(S(=O)(=O)Nc3ccccc3C(=O)O)cc2[N+](=O)[O-])cc1 [MLS002245633]", "=", 5.95),
    ("CCN(CC)P(=O)(NC(=O)C(Cl)(Cl)Cl)N(CC)CC [MLS000564159]", "=", 5.41),
]
